# MEASURED_TARGET: Peptidyl-prolyl cis-trans isomerase FKBP1A (Homo sapiens) (UniProt P62942)
# Sequence (P62942 whole entry, looked up): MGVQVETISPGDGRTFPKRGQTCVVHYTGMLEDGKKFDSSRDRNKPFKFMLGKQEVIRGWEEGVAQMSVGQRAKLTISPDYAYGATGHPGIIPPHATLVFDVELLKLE
# TEST_METHOD_NOTES: small-molecule binding to FKBP12 – biophysical, NMR detection (AID 608)
# CONDITION_SET: purified FKBP12
Calls of active or inactive are those of the source. No rule for the calls is given here.
OBSERVABLE: Kd

# COMPOUND, MEASURED_TARGET, OBSERVABLE, RECORDED_VALUE
measured = [
    ("O=C1CSC2(CN3CCC2CC3)N1 (centres undefined)", "Peptidyl-prolyl cis-trans isomerase FKBP1A (Homo sapiens) (UniProt P62942)", "Kd", "> 4 mM (inactive)"),
    ("O=C(O)C1CC(=O)N(Cc2ccc(F)cc2)C1 (centres undefined)", "Peptidyl-prolyl cis-trans isomerase FKBP1A (Homo sapiens) (UniProt P62942)", "Kd", "> 4 mM (inactive)"),
]

# input for lookup
[in] What value of Kd has been reported for the following compound? NCc1ccc(-n2cccn2)cc1
[out] > 4 mM (inactive)

---

# MEASURED_TARGET: Peptidyl-prolyl cis-trans isomerase FKBP1A (Homo sapiens) (UniProt P62942)
# TEST_METHOD_NOTES: small-molecule binding to FKBP12 – biophysical, NMR detection (AID 608)
# CONDITION_SET: purified FKBP12
Active and inactive are the calls of the source. No rule for the calls is given here.
Outcome (select one): active, inactive

The examples below pair each entry with its known result.
# COMPOUND, ASSIGNED_CATEGORY
data = [
    ("OC12CC3CC(CC(C3)C1)C2", "inactive"),
    ("CSc1ccc(S(=O)(=O)N2CCCC2)cc1", "inactive"),
    ("CN(C)C(=O)CSc1cccc2cccnc12", "inactive"),
    ("O=C(CSc1nnc2ccccn12)N1CCOCC1", "active"),
    ("Nc1cccc2cccnc12", "inactive"),
]

[in] Returns: the outcome recorded for O=C(c1ccccc1)N1CCOCC1 in this assay.
[out] inactive

[in] Returns: the outcome recorded for Cc1cccc(OCc2nnc(N)s2)c1 in this assay.
[out] inactive

[in] Returns: the outcome recorded for O=C(Nc1ccon1)c1csc2ccccc12 in this assay.
[out] inactive

[in] Returns: the outcome recorded for Cc1ccc(Cl)cc1NS(=O)(=O)N1CCCCC1 in this assay.
[out] inactive

[in] Returns: the outcome recorded for CCCc1cc(=O)[nH]c2nnc(SCC(C)=O)n12 in this assay.
[out] inactive

---

Quick reference: Kd of the listed items.
# MEASURED_TARGET: UniProt:P62942
# TEST_METHOD_NOTES: small-molecule binding to FKBP12 – biophysical, NMR detection (AID 608)
# CONDITION_SET: purified FKBP12
Activity calls are given as the source filed them. The rule behind the calls is not given here.

A selection of reference data follows.
# SMI, Kd
rows = [
    ("c1coc(-c2nc(-c3ccncc3)no2)c1", "> 4 mM (inactive)"),
    ("Cc1nc(NC2=NCCC(=O)N2)nc2ccccc12", "> 4 mM (inactive)"),
    ("COCCn1c(N)nc2c1c(=O)[nH]c(=O)n2C", "> 4 mM (inactive)"),
    ("N/N=C/c1cccnc1", "> 4 mM (inactive)"),
]

[in] What value of Kd has been reported for the following molecule? C/C=C(/C)C(=O)O[C@@H]1Cc2c(ccc3ccc(=O)oc23)OC1(C)C
[out] > 4 mM (inactive)

[in] What value of Kd has been reported for the following molecule? Cc1occc1C(=O)N1CCN(S(C)(=O)=O)CC1
[out] > 4 mM (inactive)

[in] What value of Kd has been reported for the following molecule? Cc1c(C(=O)OC(C)C)[nH]c2c1C(=O)CCC2
[out] > 4 mM (inactive)

[in] What value of Kd has been reported for the following molecule? COc1cc(CNC(=O)CCCC/C=C/C(C)C)ccc1O
[out] > 4 mM (inactive)

---

# MEASURED_TARGET: Peptidyl-prolyl cis-trans isomerase FKBP1A (Homo sapiens)
# TEST_METHOD_NOTES: small-molecule binding to FKBP12 – biophysical, NMR detection (AID 608)
# CONDITION_SET: purified FKBP12
Calls of active or inactive are those of the source. No rule for the calls is given here.
Outcome (select one): active, inactive

# MOLECULE, ASSIGNED_CATEGORY
rows = [
    ("CC(=O)O[C@H]1CC[C@@]2(C)C(CC[C@]3(C)C2CC=C2C4CC(C)(C)CC[C@]4(C)CC[C@]23C)C1(C)C (stereo partly drawn)", "inactive"),
]

[in] Returns: the outcome recorded for CC1=NN(c2ccc(N)cc2)C(=O)C1 in this assay.
[out] inactive

[in] Returns: the outcome recorded for CCC1(CC)C(=O)NC(=O)N=C1N in this assay.
[out] inactive

[in] Returns: the outcome recorded for Cc1noc(C)c1C(=O)N1CCC2(CC1)OCCO2 in this assay.
[out] inactive

[in] Returns: the outcome recorded for CSCCNC(C)=O in this assay.
[out] inactive

---

# MEASURED_TARGET: Peptidyl-prolyl cis-trans isomerase FKBP1A (Homo sapiens) (UniProt P62942)
# TEST_METHOD_NOTES: small-molecule binding to FKBP12 – biophysical, NMR detection (AID 608)
# CONDITION_SET: purified FKBP12
Active and inactive are the calls of the source. How the calls were made is not given here.
Outcome (select one): active, inactive

# COMPOUND, ASSIGNED_CATEGORY
records = [
    ("C/C=C/c1ccc2c(c1)OCO2", "inactive"),
    ("OC(CCl)c1ccc(-n2cncn2)cc1 (stereo not drawn)", "inactive"),
    ("CC(=O)N1N=C(N)SC1c1cccnc1 (stereo not drawn)", "inactive"),
    ("CC(=O)c1ccc(NC(=O)c2ocnc2C)cc1", "inactive"),
    ("CC(C)c1c(O)ccc2c1CCC1[C@@](C)(C=O)CCC[C@]21C (stereo partly drawn)", "inactive"),
    ("CNC(=S)Nc1ccc(OC)cc1C", "inactive"),
]

[in] Returns: the outcome recorded for O=[N+]([O-])c1cccc2c1nnn2C(CO)OCCO (stereo not drawn) in this assay.
[out] inactive

[in] Returns: the outcome recorded for Nc1cc(=O)[nH]c(SCC(=O)NCc2ccccc2)n1 in this assay.
[out] inactive

[in] Returns: the outcome recorded for CC(C)=CCCC1(C)C=Cc2c(O)c3c(c(CC=C(C)C)c2O1)OC12C(=CC4CC1C(C)(C)OC2(C/C=C(/C)C(=O)O)C4O)C3=O (stereo not drawn) in this assay.
[out] inactive

[in] Returns: the outcome recorded for O=S(=O)(O)c1nc2ccccc2[nH]1 in this assay.
[out] inactive

[in] Returns: the outcome recorded for COc1ccc(-c2oc3ccccc3c(=O)c2O)cc1OC in this assay.
[out] inactive

[in] Returns: the outcome recorded for CS(=O)(=O)N1CCN(C(=O)Cc2cccs2)CC1 in this assay.
[out] inactive

[in] Returns: the outcome recorded for O=C(Cn1cncn1)c1ccc(F)c(F)c1 in this assay.
[out] inactive

---

# MEASURED_TARGET: Peptidyl-prolyl cis-trans isomerase FKBP1A (Homo sapiens)
# TEST_METHOD_NOTES: small-molecule binding to FKBP12 – biophysical, NMR detection (AID 608)
# CONDITION_SET: purified FKBP12
Activity calls are given as the source filed them. No rule for the calls is given here.
Outcome (select one): active, inactive

# COMPOUND, ASSIGNED_CATEGORY
measured = [
    ("O=C(CC1NC(=O)NC1=O)Nc1ccccc1 (centres undefined)", "inactive"),
    ("C=C[C@H]1CN2CC[C@H]1C[C@@H]2[C@@H](O)c1ccnc2ccc(OC)cc12", "inactive"),
    ("Cc1cc(OCC(=O)N2CCOCC2)cc(C)c1Cl", "inactive"),
    ("c1ccc(-c2nsc(N3CCNCC3)n2)cc1", "inactive"),
]

[in] Returns: the outcome recorded for CC(=O)Nc1ccc(Cl)c(C(N)=O)c1 in this assay.
[out] inactive

[in] Returns: the outcome recorded for NC(=O)c1ccc(C(N)=O)c(-c2ccccc2)c1 in this assay.
[out] inactive

[in] Returns: the outcome recorded for COC(=O)CSc1ncnc2c(C)csc12 in this assay.
[out] inactive

[in] Returns: the outcome recorded for Cc1noc(C)c1CSc1nc2ccccc2[nH]1 in this assay.
[out] active

---

# MEASURED_TARGET: UniProtKB P62942
# TEST_METHOD_NOTES: small-molecule binding to FKBP12 – biophysical, NMR detection (AID 608)
# CONDITION_SET: purified FKBP12
Calls of active or inactive are those of the source. How the calls were made is not given here.
Outcome (select one): Y (active), N (inactive)

The examples below pair each entry with its known result.
# COMPOUND, ASSIGNED_CATEGORY
measured = [
    ("NC(=O)CNC(=O)c1ccc2ccccc2n1", "N"),
    ("O=C(O)c1ccc2sccc2c1", "N"),
    ("CCC1(CC)C(=O)N=C(N)NC1=O", "N"),
    ("COc1ccc(C)cc1S(=O)(=O)N1CCCCC1", "N"),
]

[in] Returns: the outcome recorded for O=C(O)CCC1NCC2CC1CN1CCCCC21 (stereo not given) in this assay.
[out] N

[in] Returns: the outcome recorded for NC1=NC(=O)/C(=C\c2ccco2)S1 in this assay.
[out] N

[in] Returns: the outcome recorded for Cc1nnc(SCc2cccs2)[nH]c1=O in this assay.
[out] N

[in] Returns: the outcome recorded for O=C(Cn1cnc2ccccc2c1=O)N1CCOCC1 in this assay.
[out] N

[in] Returns: the outcome recorded for Nc1n[nH]c(=S)n1-c1ccccc1 in this assay.
[out] N

[in] Returns: the outcome recorded for Cc1c(C(=O)Nc2ccccn2)oc2ccccc12 in this assay.
[out] N

[in] Returns: the outcome recorded for CCN(CC)c1nc2n(c(=O)n1)CCO2 in this assay.
[out] N

[in] Returns: the outcome recorded for O=S(=O)(Nc1ccc(Cl)c(Cl)c1)N1CCOCC1 in this assay.
[out] N

[in] Returns: the outcome recorded for Cn1ncc(NC(=O)Nc2ccc(F)cc2F)c1C(N)=O in this assay.
[out] N

[in] Returns: the outcome recorded for Nc1cc(=O)[nH]c(=O)n1-c1ccccc1 in this assay.
[out] N

[in] Returns: the outcome recorded for CC(C)(C)c1ccc(SCC(N)=O)cc1 in this assay.
[out] Y

[in] Returns: the outcome recorded for Cc1ccccc1NC(=O)CC1SC(N)=NC1=O (stereo not given) in this assay.
[out] N

[in] Returns: the outcome recorded for Cc1nn(-c2ccccc2)nc1CN in this assay.
[out] N

[in] Returns: the outcome recorded for OCCNc1ccccn1 in this assay.
[out] N

[in] Returns: the outcome recorded for CC(=O)N1CCN(C2CCSC2)CC1 (stereo not given) in this assay.
[out] N

[in] Returns: the outcome recorded for NCc1ccc2c(c1)OCCCO2 in this assay.
[out] N
